// data source = BigSolDB 2.1

assay.context: in n-propanol, 288.15 K
outcome.measure: solubility (mole fraction)

- Cc1cccc(N(C)C(=S)Oc2ccc3ccccc3c2)c1: 0.00104

* * *

assay.context: in isopropanol, 298.15 K
outcome.measure: solubility (mole fraction)

* Cc1cccc(N(C)C(=S)Oc2ccc3ccccc3c2)c1 | 0.000965

* * *

assay.context: in propylene glycol, 323.15 K
outcome.measure: solubility (mole fraction)

* Cc1cccc(N(C)C(=S)Oc2ccc3ccccc3c2)c1 | 0.000953

* * *

assay.context: in n-propanol, 328.15 K
outcome.measure: solubility (mole fraction)

- Cc1cccc(N(C)C(=S)Oc2ccc3ccccc3c2)c1: 0.00772

* * *

assay.context: in acetic acid, 293.15 K
outcome.measure: solubility (mole fraction)

- Cc1cccc(N(C)C(=S)Oc2ccc3ccccc3c2)c1: 0.00307

* * *

assay.context: in ethanol, 318.15 K
outcome.measure: solubility (mole fraction)

• Cc1cccc(N(C)C(=S)Oc2ccc3ccccc3c2)c1 = 0.00287

* * *

assay.context: in n-butanol, 313.15 K
outcome.measure: solubility (mole fraction)

• Cc1cccc(N(C)C(=S)Oc2ccc3ccccc3c2)c1 = 0.00448

* * *

assay.context: in acetic acid, 323.15 K
outcome.measure: solubility (mole fraction)

- Cc1cccc(N(C)C(=S)Oc2ccc3ccccc3c2)c1: 0.0127

* * *

assay.context: in acetic acid, 308.15 K
outcome.measure: solubility (mole fraction)

* Cc1cccc(N(C)C(=S)Oc2ccc3ccccc3c2)c1 | 0.00574

* * *

assay.context: in ethanol, 298.15 K
outcome.measure: solubility (mole fraction)

• Cc1cccc(N(C)C(=S)Oc2ccc3ccccc3c2)c1 = 0.00125

* * *

assay.context: in propylene glycol, 308.15 K
outcome.measure: solubility (mole fraction)

- Cc1cccc(N(C)C(=S)Oc2ccc3ccccc3c2)c1: 0.000542

* * *

assay.context: in n-octanol, 318.15 K
outcome.measure: solubility (mole fraction)

* Cc1cccc(N(C)C(=S)Oc2ccc3ccccc3c2)c1 | 0.00896

* * *

assay.context: in propylene glycol, 303.15 K
outcome.measure: solubility (mole fraction)

• Cc1cccc(N(C)C(=S)Oc2ccc3ccccc3c2)c1 = 0.000413

* * *

assay.context: in propylene glycol, 313.15 K
outcome.measure: solubility (mole fraction)

* Cc1cccc(N(C)C(=S)Oc2ccc3ccccc3c2)c1 | 0.00068

* * *

assay.context: in ethanol, 313.15 K
outcome.measure: solubility (mole fraction)

- Cc1cccc(N(C)C(=S)Oc2ccc3ccccc3c2)c1: 0.00241

* * *

assay.context: in isobutanol, 303.15 K
outcome.measure: solubility (mole fraction)

* Cc1cccc(N(C)C(=S)Oc2ccc3ccccc3c2)c1 | 0.00174

* * *

assay.context: in n-octanol, 283.15 K
outcome.measure: solubility (mole fraction)

- Cc1cccc(N(C)C(=S)Oc2ccc3ccccc3c2)c1: 0.00145

* * *

assay.context: in ethylene glycol, 328.15 K
outcome.measure: solubility (mole fraction)

- Cc1cccc(N(C)C(=S)Oc2ccc3ccccc3c2)c1: 0.00031

* * *

assay.context: in methanol, 303.15 K
outcome.measure: solubility (mole fraction)

* Cc1cccc(N(C)C(=S)Oc2ccc3ccccc3c2)c1 | 0.00102

* * *

assay.context: in ethylene glycol, 313.15 K
outcome.measure: solubility (mole fraction)

* Cc1cccc(N(C)C(=S)Oc2ccc3ccccc3c2)c1 | 0.000156

* * *

assay.context: in n-propanol, 323.15 K
outcome.measure: solubility (mole fraction)

• Cc1cccc(N(C)C(=S)Oc2ccc3ccccc3c2)c1 = 0.00606

* * *

assay.context: in n-butanol, 303.15 K
outcome.measure: solubility (mole fraction)

* Cc1cccc(N(C)C(=S)Oc2ccc3ccccc3c2)c1 | 0.00264

* * *

assay.context: in acetic acid, 283.15 K
outcome.measure: solubility (mole fraction)

* Cc1cccc(N(C)C(=S)Oc2ccc3ccccc3c2)c1 | 0.00186

* * *

assay.context: in ethylene glycol, 308.15 K
outcome.measure: solubility (mole fraction)

* Cc1cccc(N(C)C(=S)Oc2ccc3ccccc3c2)c1 | 0.000129

* * *

assay.context: in ethanol, 293.15 K
outcome.measure: solubility (mole fraction)

* Cc1cccc(N(C)C(=S)Oc2ccc3ccccc3c2)c1 | 0.000957

* * *

assay.context: in n-octanol, 303.15 K
outcome.measure: solubility (mole fraction)

- Cc1cccc(N(C)C(=S)Oc2ccc3ccccc3c2)c1: 0.004

* * *

assay.context: in isopropanol, 313.15 K
outcome.measure: solubility (mole fraction)

• Cc1cccc(N(C)C(=S)Oc2ccc3ccccc3c2)c1 = 0.00225

* * *

assay.context: in acetic acid, 328.15 K
outcome.measure: solubility (mole fraction)

* Cc1cccc(N(C)C(=S)Oc2ccc3ccccc3c2)c1 | 0.0156

* * *

assay.context: in n-propanol, 318.15 K
outcome.measure: solubility (mole fraction)

• Cc1cccc(N(C)C(=S)Oc2ccc3ccccc3c2)c1 = 0.00451

* * *

assay.context: in ethanol, 308.15 K
outcome.measure: solubility (mole fraction)

• Cc1cccc(N(C)C(=S)Oc2ccc3ccccc3c2)c1 = 0.00196

* * *

assay.context: in propylene glycol, 283.15 K
outcome.measure: solubility (mole fraction)

- Cc1cccc(N(C)C(=S)Oc2ccc3ccccc3c2)c1: 0.000155

* * *

assay.context: in methanol, 283.15 K
outcome.measure: solubility (mole fraction)

- Cc1cccc(N(C)C(=S)Oc2ccc3ccccc3c2)c1: 0.000402

* * *

assay.context: in isopropanol, 288.15 K
outcome.measure: solubility (mole fraction)

• Cc1cccc(N(C)C(=S)Oc2ccc3ccccc3c2)c1 = 0.00054

* * *

assay.context: in methanol, 323.15 K
outcome.measure: solubility (mole fraction)

• Cc1cccc(N(C)C(=S)Oc2ccc3ccccc3c2)c1 = 0.00224

* * *

assay.context: in propylene glycol, 293.15 K
outcome.measure: solubility (mole fraction)

• Cc1cccc(N(C)C(=S)Oc2ccc3ccccc3c2)c1 = 0.000264

* * *

assay.context: in n-butanol, 298.15 K
outcome.measure: solubility (mole fraction)

• Cc1cccc(N(C)C(=S)Oc2ccc3ccccc3c2)c1 = 0.00207

* * *

assay.context: in isobutanol, 328.15 K
outcome.measure: solubility (mole fraction)

* Cc1cccc(N(C)C(=S)Oc2ccc3ccccc3c2)c1 | 0.00705
